B1: PTPN9 (parent)
chain: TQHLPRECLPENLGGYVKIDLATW

- Variants of: B1
- assayNotes: protein stability index of a GFP-peptide fusion (GPS, HEK-293T) (PSI 1-6); higher = more stable;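 note: lentivirally expressed fusions sorted by FACS into six bins by GFP to DsRed ratio, PSI derived from sequencing read proportions per bin multiplied by bin number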
- testParameters: c terminus: a fixed tail appended
Quick rule for you: protein stability index at 2 or higher means YES, lower means NO.

TQHLPRECDPENLGGYVKIDLATW [L9D] ... YES
TQHLPRECLPHNLGGYVKIDLATW [E11H] ... NO
TQHLPDECLPENLGGYVKIDLATW [R6D] ... YES
TQHLPPECLPENLGGYVKIDLATW [R6P] ... YES
TCHLPRECLPENLGGYVKIDLATW [Q2C] ... YES
TQHLPYECLPENLGGYVKIDLATW [R6Y] ... NO

# evaluate next
Prompt: Does protein stability index meet or surpass 2 for TQHLPRECLPENLGGYVKIPLATW [D20P] ?
Response: NO
